Tested on: BT474 (breast cancer cell line)
Assay: In vitro cytotoxicity by MTT assay, BT474
Assay type: cell-based
Conditions: Homo sapiens, BT-474, 3.7 μM, 72 h, read-out: % cytotoxicity (100 − % cell survival) of BT474 cell line
Protocol: The cancer cell line cultures of HEK 293 ([…]), BT474 (breast cancer cell line) and NCI-H226 (lung cancer) were obtained from Pasteur Institute of India, Coonoor, India, and were cultured in RPMI-1640 and 10 % heat-[…] New born calf serum with antibiotics [penicillin ([…]), streptomycin (100 μg/mL) and amphotericin B (25 μg/mL)]. The cells were maintained at 37 °C in a humidified atmosphere with 5 % CO2 and were subcultured twice a week. […]
measured-endpoint: cytotoxicity at 3.7 µM (%)
# output: bare number, implied unit %

Observe how each entry below is paired with its result.
> print(dat)
                                   molecule  unit.string   val
1  CC(=O)Nc1ccc(S(=O)(=O)Nc2nnc(S(=O)(=O)NC(=O)c3ccccc3N)s2)cc1            %  28.7
2  CC(=O)Nc1ccc(S(=O)(=O)Nc2nnc(S(=O)(=O)NC(=O)c3ccc([N+](=O)[O-])cc3)s2)cc1            %  31.1
3         Nc1nnc(S(=O)(=O)NC(=O)c2ccccc2)s1            %  26.3

Query :: Data request, read-out cytotoxicity at 3.7 µM, for "Nc1nnc(S(=O)(=O)NC(=O)c2cccc([N+](=O)[O-])c2)s1"
Result :: 50.1

Query :: Data request, read-out cytotoxicity at 3.7 µM, for "Nc1nnc(S(=O)(=O)NC(=O)c2ccccc2O)s1"
Result :: 28.1

Query :: Data request, read-out cytotoxicity at 3.7 µM, for "CC(=O)Nc1ccc(S(=O)(=O)Nc2nnc(S(=O)(=O)NC(=O)c3cccc([N+](=O)[O-])c3)s2)cc1"
Result :: 40.6
